The measured values listed here are drawn from patent US11759455B2.

- Target Of Assay: human GluN1/GluN2B NMDA receptors (Homo sapiens, UniProt Q13224)
- Construct: expressed in transfected cells
- Sequence (Q13224 27-1484, other chains not shown): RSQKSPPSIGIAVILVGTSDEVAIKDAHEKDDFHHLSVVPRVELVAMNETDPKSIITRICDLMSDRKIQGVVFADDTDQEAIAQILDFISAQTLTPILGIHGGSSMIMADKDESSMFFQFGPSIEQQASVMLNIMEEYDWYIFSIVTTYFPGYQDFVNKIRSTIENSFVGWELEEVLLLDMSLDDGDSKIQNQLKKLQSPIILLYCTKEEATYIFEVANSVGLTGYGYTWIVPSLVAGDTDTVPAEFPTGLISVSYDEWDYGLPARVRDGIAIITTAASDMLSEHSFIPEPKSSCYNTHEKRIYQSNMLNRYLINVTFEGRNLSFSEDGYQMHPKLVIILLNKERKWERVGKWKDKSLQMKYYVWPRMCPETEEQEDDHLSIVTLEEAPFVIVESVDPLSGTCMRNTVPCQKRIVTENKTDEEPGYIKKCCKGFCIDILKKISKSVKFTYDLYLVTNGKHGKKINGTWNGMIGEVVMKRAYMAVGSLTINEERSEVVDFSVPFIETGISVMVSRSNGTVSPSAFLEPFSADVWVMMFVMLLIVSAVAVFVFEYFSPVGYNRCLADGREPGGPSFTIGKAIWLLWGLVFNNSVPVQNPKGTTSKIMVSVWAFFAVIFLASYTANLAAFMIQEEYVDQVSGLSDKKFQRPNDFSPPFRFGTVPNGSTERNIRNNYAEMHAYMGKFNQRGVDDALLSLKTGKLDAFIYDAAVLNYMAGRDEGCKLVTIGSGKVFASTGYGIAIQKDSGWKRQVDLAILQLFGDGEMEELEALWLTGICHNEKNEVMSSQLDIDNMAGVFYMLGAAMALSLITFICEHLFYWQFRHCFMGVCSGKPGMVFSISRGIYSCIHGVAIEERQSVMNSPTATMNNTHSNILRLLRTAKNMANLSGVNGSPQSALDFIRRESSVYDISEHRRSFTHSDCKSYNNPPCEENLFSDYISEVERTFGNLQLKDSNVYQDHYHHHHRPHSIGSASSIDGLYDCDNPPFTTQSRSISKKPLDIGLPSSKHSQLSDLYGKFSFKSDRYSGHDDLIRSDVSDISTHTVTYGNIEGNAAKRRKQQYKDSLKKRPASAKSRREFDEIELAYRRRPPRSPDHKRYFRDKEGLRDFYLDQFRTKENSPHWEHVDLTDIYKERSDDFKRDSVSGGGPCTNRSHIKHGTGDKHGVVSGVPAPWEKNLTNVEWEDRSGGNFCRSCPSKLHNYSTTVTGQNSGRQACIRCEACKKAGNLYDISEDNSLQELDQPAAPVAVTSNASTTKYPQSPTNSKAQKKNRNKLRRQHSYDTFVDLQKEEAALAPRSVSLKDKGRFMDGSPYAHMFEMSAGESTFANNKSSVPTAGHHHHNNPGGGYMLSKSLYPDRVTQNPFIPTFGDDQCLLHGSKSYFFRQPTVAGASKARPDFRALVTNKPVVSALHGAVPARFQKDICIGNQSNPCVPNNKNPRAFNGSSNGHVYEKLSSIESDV
- Protocol Notes: Cell-based calcium flux (FLIPR) assay on cloned human NR1/NR2B ion channels expressed in mammalian cells (standard and HTS buffer variants);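 further: stable Tet-On inducible cell line, Ca2+ influx triggered by glutamate at about EC40 plus 10 µM glycine, fluorescent dye read-out over 5 min, normalized to control wells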
- Condition Notes: standard assay buffer (0.5 mM MgCl2 dye loading; 137 mM NaCl, 4 mM KCl assay buffer), human GluN1/GluN2B cells, read-out: NR2B IC50 (μM) standard assay
Endpoint: IC50 (µM)

A: Cc1noc(Cn2c(=O)n(C)c3ncc(-c4ccc(F)c(F)c4)cc32)n1
B: Cc1cc(Cn2c(=O)[nH]c3ncc(-c4cccc(C(F)(F)F)c4)cc32)ccc1F
C: Cc1cc(-c2cnc3[nH]c(=O)n(Cc4ncccc4C)c3c2)ccc1F
D: Cn1c(=O)n(CCN2CCC2)c2cc(-c3cccc(C(F)(F)F)c3)cnc21
Sequence the entries by IC50, beginning with the highest number. Enter labels, ranked according to the request. B, D, A, C
(B: 8.71 µM, D: 0.7 µM, A: 0.457 µM, C: 0.114 µM)
